Source listed as patent US20210380703A1.

# TARGET_UNDER_TEST: T1, biotinylated goat anti-human kappa light chain
# T1 construct: positive control of the ELISA
# ASSAY_EXPLANATION: ELISA, positive control; also: test concentration or dose not given here
ASSAY_READOUT: optical density (OD)
Entry rule: numbers only, all in OD.

The cases that follow already have their optical density on record.
BINDER: 374_A10 (antibody, V domains shown, Group II) VH: EVQLLESGGGLVQPGGSLRLSCAASGFTFSSYGMHWVRQAPGKGLEWVSGINYNGGYTSYADSVKGRFTISRDNSKNTLYLQMNSLRAEDTAVYYCARAATWHDTHLDYWGQGTLVTVSS VL: DIQMTQSPSSLSASVGDRVTITCRASQSILSYVNWYQQKPGKAPKLLIYAATSRASGVPSRFSGSGSGTDFTLTISSLQPEDFATYYCQQSYDTPLTFGGGTKVEIK
VALUE_UNIT: OD
MEASURED_VALUE: 3

BINDER: 371_D12 (antibody, V domains shown, Group I) VH: EVQLLESGGGLVQPGGSLRLSCAASGFTFDSYGMNWVRQAPGKGLEWVSGINYNGGYKSYADSVKGRFTISRDNSKNTLYLQMNSLRAEDTAVYYCARAANWHDTALDYWGQGTLVTVSS VL: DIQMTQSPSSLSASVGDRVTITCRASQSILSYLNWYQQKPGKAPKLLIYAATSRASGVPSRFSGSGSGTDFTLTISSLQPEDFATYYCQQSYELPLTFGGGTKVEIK
VALUE_UNIT: OD
MEASURED_VALUE: 3.44

Consider the binder 370_H08 (antibody, V domains shown, Group I) VH: EVQLLESGGGLVQPGGSLRLSCAASGFTFSSYGMHWVRQAPGKGLEWVASINYNGGYTSYADSVKGRFTISRDNSKNTLYLQMNSLRAEDTAVYYCARAANWHDTHLDYWGQGTLVTVSS VL: DIQMTQSPSSLSASVGDRVTITCRASQSILSYVNWYQQKPGKAPKLLIYAATSRHSGVPSRFSGSGSGTDFTLTISSLQPEDFATYYCQQSYSLPLTFGGGTKVEIK and give its recorded optical density.
3.65

Consider the binder 365_G04 (antibody, V domains shown, Group III) VH: EVQLLESGGGLVQPGGSLRLSCAASGFTFDSYSMNWVRQAPGKGLEWVAGINYNGGYTGYADSVKGRFTISRDNSKNTLYLQMNSLRAEDTAVYYCARGANWHDTHLDYWGQGTLVTVSS VL: DIQMTQSPSSLSASVGDRVTITCRASQSIVSYVNWYQQKPGKAPKLVIYAATSLASGVPSRFSGSGSGTDFTLTISSLQPEDFATYYCQQSYDTPLTFGGGTKVEIK and give its recorded optical density.
3.29

Consider the binder 373_G06 (antibody, V domains shown, Group II) VH: EVQLLESGGGLVQPGGSLRLSCAASGFTFSSYGMHWVRQAPGKGLEWVASINYNSGYTGYADSVKGRFTISRDNSKNTLYLQMNSLRAEDTAVYYCARAATWHDTHLDYWGQGTLVTVSS VL: DIQMTQSPSSLSASVGDRVTITCRASQSILSYVNWYQQKPGKAPKLLIYAATSLASGVPSRFSGSGSGTDFTLTISSLQPEDFATYYCQQSYNLPLTFGGGTKVEIK and give its recorded optical density.
3.23
